Reported residual activity by item:
molecular target: FGFR2 (human); experiment: radiometric filter-binding kinase assay, Kinase HotSpot; conditions: compound 0.5 µM; ATP 10 µM
measurement_type: residual activity (%)

Cc1cc(Nc2nc(-c3ccccc3)nc3ccccc23)n[nH]1 = 83.7
COc1cc2ncnc(Nc3ccc(O)c(Br)c3)c2cc1OC = 95.9
O=C1NC(=O)c2c1c1c3ccccc3[nH]c1c1[nH]c3cc(Br)ccc3c21 = 98.4
O=C(c1ccccc1)c1ccc(N2CCOCC2)cc1O = 99.1
O=S(=O)(NCCNC/C=C/c1ccc(Br)cc1)c1cccc2cnccc12 = 95.1
N/C(=N\N=C/c1ccc(-c2cccc([N+](=O)[O-])c2)o1)N[N+](=O)[O-] = 104
O=c1c(-c2ccc(F)cc2)c(-c2ccncc2)[nH]n1-c1ccc(Cl)cc1 = 94
O=c1cc(N2CCOCC2)oc2c(-c3ccccc3)cccc12 = 95.8
COc1cccc(-c2cc(=O)c3ccccc3o2)c1N = 97.8
CCc1nc(-c2ccc(OC)cc2)[nH]c1-c1ccncc1 = 104
c1ccc(-c2cnc(Nc3ccc(OCCN4CCCC4)cc3)s2)cc1 = 92.7
N#C/C(=C1/Nc2ccccc2S1)c1ccnc(NCCc2cccnc2)n1 = 102
N#CCCc1ccc2c(c1)-c1[nH]c3ccc([N+](=O)[O-])cc3c1CC(=O)N2 = 93.2

----------
target: CDK3 CCNE1 (human) (UniProt Q00526+P24864); assay: radiometric filter-binding kinase assay, Kinase HotSpot; conditions: compound 0.5 µM; ATP 10 µM
Sequence (P24864 whole entry, looked up): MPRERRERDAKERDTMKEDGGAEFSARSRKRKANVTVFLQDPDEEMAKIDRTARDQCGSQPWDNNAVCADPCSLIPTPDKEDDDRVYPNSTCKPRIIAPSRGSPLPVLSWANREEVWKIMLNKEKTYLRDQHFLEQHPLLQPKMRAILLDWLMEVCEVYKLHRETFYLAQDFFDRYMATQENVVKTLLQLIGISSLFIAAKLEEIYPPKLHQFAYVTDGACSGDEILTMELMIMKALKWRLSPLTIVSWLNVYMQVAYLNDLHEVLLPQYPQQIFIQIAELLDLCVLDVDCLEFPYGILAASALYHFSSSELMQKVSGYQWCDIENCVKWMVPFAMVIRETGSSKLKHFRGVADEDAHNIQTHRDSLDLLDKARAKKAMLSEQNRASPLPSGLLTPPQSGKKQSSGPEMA
Sequence (Q00526 whole entry, looked up): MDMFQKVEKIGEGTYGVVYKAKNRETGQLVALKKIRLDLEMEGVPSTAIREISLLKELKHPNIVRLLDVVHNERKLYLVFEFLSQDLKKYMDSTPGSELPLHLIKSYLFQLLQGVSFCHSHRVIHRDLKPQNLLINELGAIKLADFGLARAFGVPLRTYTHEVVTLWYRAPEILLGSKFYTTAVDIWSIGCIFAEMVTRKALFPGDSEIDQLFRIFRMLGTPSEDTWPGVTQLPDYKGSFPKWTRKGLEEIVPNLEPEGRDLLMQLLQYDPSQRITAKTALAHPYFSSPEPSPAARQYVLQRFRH
measurement_type: residual activity (%)

c1ccc(-c2cnc(Nc3ccc(OCCN4CCCC4)cc3)s2)cc1 = 97.6
O=C1NC(=O)c2c1c1c3ccccc3[nH]c1c1[nH]c3cc(Br)ccc3c21 = 88.1
N#Cc1c(NC(=O)c2cccc3ccccc23)sc2c1CCCC2 = 99.2
COc1cccc(-c2cc(=O)c3ccccc3o2)c1N = 109
COc1cc2c(cc1OC)-c1[nH]nc(Nc3cccc(F)c3)c1C2 = 95.4
COc1cc2ncnc(Nc3ccc(O)c(Br)c3)c2cc1OC = 93.5
N#C/C(=C1/Nc2ccccc2S1)c1ccnc(NCCc2cccnc2)n1 = 92.3
Cn1cc(/C=C2\C(=O)Nc3ccc(S(N)(=O)=O)cc32)c2ccccc21 = 90.3
N#CCCc1ccc2c(c1)-c1[nH]c3ccc([N+](=O)[O-])cc3c1CC(=O)N2 = 39.7

----------
biological target: PLK2 (human); assay: radiometric filter-binding kinase assay, Kinase HotSpot; conditions: compound 0.5 µM; ATP 10 µM
measurement_type: residual activity (%)

O=C(c1ccccc1)c1ccc(N2CCOCC2)cc1O = 111
FC(F)(F)c1ccc(/C=C/c2nc(COc3ccc(CCCCn4ccnn4)cc3)co2)cc1 = 99.7
N#CCCc1ccc2c(c1)-c1[nH]c3ccc([N+](=O)[O-])cc3c1CC(=O)N2 = 99
CCOc1cc2ncnc(Nc3cccc(Br)c3)c2cc1OCC = 99.8

----------
target: UniProtKB Q15759; assay: radiometric filter-binding kinase assay, Kinase HotSpot; details: compound 0.5 µM; ATP 10 µM
Sequence (Q15759 whole entry, looked up): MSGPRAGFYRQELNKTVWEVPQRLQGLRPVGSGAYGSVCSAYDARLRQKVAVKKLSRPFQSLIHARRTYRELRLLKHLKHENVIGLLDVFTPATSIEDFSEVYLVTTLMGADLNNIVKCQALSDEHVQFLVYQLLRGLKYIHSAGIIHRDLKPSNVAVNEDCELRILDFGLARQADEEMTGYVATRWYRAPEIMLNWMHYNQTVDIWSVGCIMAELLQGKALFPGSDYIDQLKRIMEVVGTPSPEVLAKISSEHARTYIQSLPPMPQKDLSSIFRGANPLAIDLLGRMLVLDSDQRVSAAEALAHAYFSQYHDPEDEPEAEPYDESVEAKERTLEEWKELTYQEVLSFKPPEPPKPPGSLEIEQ
Reported residual activity by item:
measurement_type: residual activity (%)

O=S(=O)(NCCNC/C=C/c1ccc(Br)cc1)c1cccc2cnccc12 = 87.2
COc1cccc(-c2cc(=O)c3ccccc3o2)c1N = 108
COc1cc2ncnc(Nc3ccc(O)c(Br)c3)c2cc1OC = 90.1
CCCCc1c(-c2ccc(O)cc2)[nH]c2nccnc12 = 103
FC(F)(F)c1ccc(/C=C/c2nc(COc3ccc(CCCCn4ccnn4)cc3)co2)cc1 = 102
O=C1NC(=O)c2cc(Nc3ccc(F)cc3)c(Nc3ccc(F)cc3)cc21 = 94.6
O=c1c(-c2ccc(F)cc2)c(-c2ccncc2)[nH]n1-c1ccc(Cl)cc1 = 55.9
COc1cc2c(N3CCN(C(=O)Nc4ccc(OC(C)C)cc4)CC3)ncnc2cc1OCCCN1CCCCC1 = 105
O=c1[nH]c2ccccc2n1C1CCN(Cc2ccc(-c3nc4cc5[nH]cnc5cc4nc3-c3ccccc3)cc2)CC1 = 102
Cn1cc(/C=C2\C(=O)Nc3ccc(S(N)(=O)=O)cc32)c2ccccc21 = 93.8
O=C(O)c1ccc2c3c1cccc3c(=O)n1c3ccccc3nc21 = 105
c1ccc(-c2cnc(Nc3ccc(OCCN4CCCC4)cc3)s2)cc1 = 94.7
COc1cc2c(cc1OC)-c1[nH]nc(Nc3cccc(F)c3)c1C2 = 83
N#CCCc1ccc2c(c1)-c1[nH]c3ccc([N+](=O)[O-])cc3c1CC(=O)N2 = 101
CCOc1cc2ncnc(Nc3cccc(Br)c3)c2cc1OCC = 89
